Tested on: Mycobacterium tuberculosis
protocolSummary: Antimycobacterial activity against Mycobacterium tuberculosis H37Ra by alamar blue assay
Format: functional
assayMetric: MIC (µg/mL)
// note: answer is a bare numeric in µg/mL

Some entries whose results are on file:
molecule: CC1(C)C=Cc2c(ccc3c2O[C@H](c2ccc(O)cc2)CC3)O1
MIC / µg/mL: 25

molecule: COc1cc2c(cc1O)-c1cc(O)c(OC)c(OC)c1C=CC2
MIC / µg/mL: 50

molecule: CC(C)=CCc1c([C@@H]2CC(=O)c3c(O)cc(O)c(CC=C(C)C)c3O2)cc2c(c1O)OC(C)(C)C=C2
MIC / µg/mL: 6.3

Q. Supply recorded MIC for NC[C@H]1O[C@H](O[C@H]2[C@H](O)[C@@H](O[C@H]3O[C@H](CO)[C@@H](O)[C@H](N)[C@H]3O)[C@H](N)C[C@@H]2N)[C@H](O)[C@@H](O)[C@@H]1O.O=S(=O)(O)O [KANAMYCIN SULFATE] here.
A. 2

Q. Check the records and state MIC for NNC(=O)c1ccncc1 [ISONIAZID]
A. 0.04

Q. Tell me MIC reported for COc1cc2c(c(CC=C(C)C)c1O)O[C@H](c1ccc(O)c(O)c1CC=C(C)C)CC2
A. 25

Q. In one line, give reported MIC of the entry COc1ccc([C@@H]2CC(=O)c3c(O)cc(O)c(CC=C(C)C)c3O2)c(CC=C(C)C)c1O .
A. 12.5
